Measured values drawn from ChEMBL document CHEMBL1201862 for this set.

system: HCT-116; assay: NCI tumour cell line growth inhibition, 48 h
Active and inactive are the calls of the source. Rule as the data show it: active = GI50 up to about 1.1 µM and inactive = higher.
Hi! Could you answer with just one of these? label 1 for active, label 0 for inactive

What did this assay record as the result for COC(=O)/C=C1/N=C(N(C)/N=C/c2ccccc2)NC1=O ?
label 0

// repeat for c1ccc2c(c1)nc1n2CCSC1 and report
label 0

Lookup COC(=O)[C@H](C)N1C(=O)N[C@@H](C(C)C)C1=O
label 0

Continue with CC(=O)c1c2n(n(-c3ccccc3)c1=O)C(=O)c1nccnc1-2
label 0

Now the same for COc1ccc2[nH]c3c(c2c1)CC(=O)N1CCCC(CC3O)C1 (stereo unspecified)
label 0

// repeat for CC(=O)OCC1OC(n2c(=O)n(-c3ccccc3)c(=O)c3ccccc32)C(OC(C)=O)C(OC(C)=O)C1OC(C)=O (stereo unspecified) and report
label 0

What do you get for CC1CCN(C(C)C)P(=S)(Cc2ccccc2)O1 (stereo unspecified) ?
label 0

And O=C1/C(=N\n2c(S)nnc2-c2ccncc2)c2cc(Cl)ccc2N1CN1CCCCC1 ?
label 0

Then what about the compound NC(CP(=O)(O)O)C(=O)O (stereo unspecified) ?
label 0

Moving on to CCOC(=O)/C=C/c1ccccn1
label 0

Okay, and COc1ccc(C(=O)/C=C/c2ccc(OCC(=N)N)cc2)cc1 ?
label 0

Input OCC(S)CS.[Bi] (stereo unspecified)
label 0

Okay, and O=C(Cc1ccc(Cl)c(Cl)c1)NCCCN1CCN(CCCN2CCCCC2)CC1 ?
label 0

Would you mind doing COc1ccc([C@]23CCN4COC[C@@H]([C@H]42)C2(CC3)OCC(C)(C)CO2)cc1OC as well?
label 0

Same thing, different compound: Cc1cc2c(cc1Cl)SSc1cc(Cl)c(C)cc1S(=O)(=O)Nc1nc(N)nn1C(O)n1nc(N)nc1NS2(=O)=O
label 0

Same question for O=C(Nc1nccs1)c1c(O)nc2sccn2c1=O please.
label 0

Could you do the same for N/C(=N\c1ccc(Cl)cc1)NS(=O)(=O)c1cccc2nsnc12 , please?
label 0

Okay, and C=CN1C(=O)OC[C@@H]1c1ccccc1 ?
label 0

Check Cc1cccc(C)c1NC(=O)CCCC(=O)C1CCC/C1=N\NC(=O)C(=O)NN (stereo unspecified) too.
label 0

Query N#CCN1CCCCCc2ccccc21 next
label 0

Field entry: COc1ccc2c(c1)C(CCN)C(=O)N2 (stereo unspecified)
label 0

Would you kindly repeat that for CC1(C)CC23CC(C)(C)c4cccc(c42)OCc2ccc4ccc5ccc(nc5c4n2)COc2cccc1c23 ?
label 0

Repeat with O=C1NC(O)n2c(=O)[nH]c(=O)n21 (stereo unspecified)
label 0

Thanks! And Cc1cc(C)c2c(O)cc(-c3cccc4ccccc34)nc2n1 ?
label 1

Then what about the compound N#CC1C[C@@H]2CC3(CCC2CN1C(=O)c1ccccc1)OCCO3 (stereo partly specified) ?
label 0

Likewise for Cc1cc2[nH]c3c(C#N)c(-c4ccccc4)c(/C=N/c4ccc(F)cc4)c(=O)n3c2cc1C ?
label 0

Field entry: COc1cc(/C=C/C=C2\CCC/C(=C\C=C\c3ccc(O)c(OC)c3)C2=O)ccc1O
label 0

# repeat for CC(=O)N1CC(C)(C)c2c1cc(C)c(O)c2C
label 0

// query: Cc1ccc2[nH]c(=O)c(-c3cnc(O)nn3)c(O)c2c1
label 0

Please do the same for O=c1c2ccccc2nc(-c2cccc([N+](=O)[O-])c2)n1O as well.
label 0

Next entry: c1ccc2c(c1)c1c(c3ccccc32)CN2CCCC2C1 (stereo unspecified)
label 0
